# Assayed System: MMP-3 (Homo sapiens, UniProt P08254)
# Sequence (P08254 100-477, species assumed): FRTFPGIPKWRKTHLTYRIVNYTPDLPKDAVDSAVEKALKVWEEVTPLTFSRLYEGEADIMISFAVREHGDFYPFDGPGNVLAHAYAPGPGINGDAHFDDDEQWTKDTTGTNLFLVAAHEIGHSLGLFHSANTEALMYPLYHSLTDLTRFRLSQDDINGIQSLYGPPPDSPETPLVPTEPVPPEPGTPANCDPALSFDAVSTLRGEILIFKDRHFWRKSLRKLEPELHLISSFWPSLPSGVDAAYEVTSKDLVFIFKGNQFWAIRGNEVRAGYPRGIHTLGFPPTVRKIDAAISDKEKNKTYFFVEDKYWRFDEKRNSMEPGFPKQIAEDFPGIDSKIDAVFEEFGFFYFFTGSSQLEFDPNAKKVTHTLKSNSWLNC
# Measurement Notes: Enzyme inhibition assay, fluorometric substrate degradation, MMP-3
# Measurement Parameters: Minienzyme used; read-out: Inhibition Potencies, IC50, MMP-3
Below, each entry is listed alongside its reported IC50.

Use these answered entries as a reference point.
{"columns": ["Compound", "Assayed System", "IC50"],
 "data": [
  ["O=C(NO)[C@@H]1CCCC[C@H]1NS(=O)(=O)c1ccc(-c2ccccc2)cc1 (racemic) [compound 2c]", "MMP-3 (Homo sapiens, UniProt P08254)", "> 3000 nM"],
  ["CNC(=O)[C@H](Cc1c[nH]c2ccccc12)NC(=O)[C@@H](CC(=O)NO)CC(C)C [GM-6001, reference compound]", "MMP-3 (Homo sapiens, UniProt P08254)", "80 nM"]
]}

In the following, a different compound is considered.
Query for MMP-3 (Homo sapiens, UniProt P08254): what IC50 does the record show for O=C(NO)[C@@H]1CCCC[C@@H]1NS(=O)(=O)c1ccc(-c2ccccc2)cc1 (racemic) [compound 1c] ? > 3000 nM

###

# Assayed System: MMP-2 (Homo sapiens)
# Construct: Human rMMP-2 and -9 were purified in active forms
# Sequence (P08253 110-660): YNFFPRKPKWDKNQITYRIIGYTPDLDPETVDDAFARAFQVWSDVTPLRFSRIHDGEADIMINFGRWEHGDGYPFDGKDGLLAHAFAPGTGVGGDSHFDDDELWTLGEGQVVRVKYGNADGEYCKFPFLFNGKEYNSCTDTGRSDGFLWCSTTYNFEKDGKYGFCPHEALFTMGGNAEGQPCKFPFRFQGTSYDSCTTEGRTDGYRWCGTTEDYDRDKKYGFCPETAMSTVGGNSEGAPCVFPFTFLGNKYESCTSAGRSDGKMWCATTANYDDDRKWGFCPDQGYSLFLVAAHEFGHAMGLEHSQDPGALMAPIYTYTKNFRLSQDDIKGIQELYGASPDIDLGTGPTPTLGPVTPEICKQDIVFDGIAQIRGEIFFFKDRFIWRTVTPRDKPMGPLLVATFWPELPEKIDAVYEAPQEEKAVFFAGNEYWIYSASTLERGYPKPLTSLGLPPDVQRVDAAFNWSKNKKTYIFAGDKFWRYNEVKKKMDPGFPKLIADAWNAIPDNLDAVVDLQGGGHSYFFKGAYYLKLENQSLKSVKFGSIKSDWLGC
# Measurement Notes: Enzyme inhibition assay, fluorometric substrate degradation, MMP-2
# Measurement Parameters: purified human rMMP-2, fluorogenic substrate; read-out: Inhibition Potencies, IC50, MMP-2
pIC50: −log10 of the molar value.
Reported Endpoint: pIC50

{"columns": ["Compound", "Assayed System", "Experimental Result"],
 "data": [
  ["O=C(NO)[C@@H]1CCCC[C@@H]1NS(=O)(=O)c1ccc(-c2ccccc2)cc1 (racemic) [compound 1c]", "MMP-2 (Homo sapiens)", 6.82],
  ["O=C(NO)[C@@H]1CCCC[C@H]1NS(=O)(=O)c1ccc(-c2ccccc2)cc1 (racemic) [compound 2c]", "MMP-2 (Homo sapiens)", 6.90]
]}

###

# Assayed System: Endopeptidase
# Measurement Notes: Enzyme inhibition assay, endopeptidase (other zinc-protease control)
# Measurement Parameters: read-out: Inhibition Potencies, IC50, Endopeptidase
pIC50: −log10 of the molar value.
Reported Endpoint: pIC50

{"columns": ["Molecule", "pIC50"],
 "data": [
  ["O=C(NO)[C@@H]1CCCC[C@@H]1NS(=O)(=O)c1ccc(-c2ccccc2)cc1 (racemic)", "< 4.70"]
]}

In the following, a different molecule is considered.
Consider the molecule O=C(NO)[C@@H]1CCCC[C@H]1NS(=O)(=O)c1ccc(-c2ccccc2)cc1 (racemic) and give its measured pIC50. < 4.70
